assay: Retention time of the compound; type: physicochemical
Listed here: items and their measured Retention_time.
Write down the numeric answer in min and omit the unit.

A selection of reference data follows.
smiles_entry	number
Cc1cnn(C(=O)Oc2ccc3ccccc3c2)c1	3.954
O=C(NCc1ccc(Oc2ccccc2)cc1)n1cccn1	3.987
N#Cc1cnn(C(=O)Cc2ccc(-c3ccccc3)cc2)c1	3.977

Ask: Entry `N#Cc1cnn(C(=O)N2CCN(Cc3ccccc3)CC2)c1` : reported Retention_time = ?
Result: 3.899

Ask: Entry `O=C(CCCCCc1ccccc1)n1cccn1` : reported Retention_time = ?
Result: 4.199

Ask: Entry `Cc1cnn(C(=O)NCCCc2ccccc2)c1` : reported Retention_time = ?
Result: 3.616

Ask: Entry `O=C(N1CCN(Cc2ccc(Oc3ccccc3)cc2)CC1)n1cccn1` : reported Retention_time = ?
Result: 3.893

Ask: Entry `Cc1cnn(C(=O)Cc2ccc3ccccc3c2)c1` : reported Retention_time = ?
Result: 3.992

Ask: Entry `O=C(N1CCN(Cc2ccc3ccccc3c2)CC1)n1cc(I)cn1` : reported Retention_time = ?
Result: 3.844

Ask: Entry `N#Cc1cnn(C(=O)N2CCN(Cc3ccc(OCc4ccccc4)cc3)CC2)c1` : reported Retention_time = ?
Result: 3.787

Ask: Entry `N#Cc1cnn(C(=O)OCc2ccc(OCc3ccccc3)cc2)c1` : reported Retention_time = ?
Result: 3.912

Ask: Entry `Cc1cnn(C(=O)OCCCc2ccccc2)c1` : reported Retention_time = ?
Result: 3.69
